Where these numbers come from: patent US4843087A

- Test system: Polio 2
- protocol.description: microbe, parasite or virus in culture
- Format: cell-based, poliovirus
- protocol.conditions: Enterovirus C, HeLa, read-out: Polio 2 MIC
outcome.measure: MIC
A complete answer gives the number and then names the unit.

Worked cases, MIC given:
# compound, assay.value
data = [
    ("Cc1cc(CCCCCOc2c(Br)cc(C3=NCCO3)cc2Br)on1", "2 µg/mL"),
    ("Cc1cc(COCCCCCOc2ccc(C3=NCCO3)cc2)on1", "0.27 µg/mL"),
    ("Cc1cc(CCCCCCCOc2ccc(C3=NCCO3)cc2Br)on1", "0.5 µg/mL"),
    ("Cc1cc(CCCCCOc2ccc(C3=NCCO3)cc2F)on1", "0.1 µg/mL"),
    ("CN(C)Cc1cc(CCCCCCCOc2ccc(C3=NCCO3)cc2)on1", "0.62 µg/mL"),
    ("Cc1cc(CCCCCCCOc2ccc(C3=NCCO3)c(O)c2)on1", "0.04 µg/mL"),
    ("Cc1cc(CCCCCOc2ccc(-c3nc(C)c(C)o3)cc2Cl)on1", "1.9 µg/mL"),
    ("Cc1cc(CCCCCCCOc2ccc(C3=NCC(C)O3)cc2)on1 (stereo not drawn)", "0.49 µg/mL"),
    ("Cc1cc(CCCCCCOc2ccc(C3=NCCO3)cc2)on1", "0.017 µg/mL"),
    ("Cc1cc(CCCCCCCOc2ccc(C3=NCCO3)cc2C)on1", "0.36 µg/mL"),
]

Provide each entry's MIC from the list below.
1. Cc1cc(CCCCCCCOc2ccc(-c3nc(C)co3)cc2)on1
2. CCc1cc(C2=NCCO2)cc(C)c1OCCCCCc1cc(C)no1
3. Cc1cc(CCCCCOc2ccc(-c3ncc(C)o3)cc2)on1
4. Cc1cc(CCC2CCC(COc3ccc(C4=NCCO4)cc3)CC2)on1 (stereo not drawn)

stdout:
1: 2.6 µg/mL; 2: 3.3 µg/mL; 3: 0.09 µg/mL; 4: 0.65 µg/mL

Provide each entry's MIC from the list below.
1. Cc1cc(CCCCCCCOc2ccc(C3=NCCO3)cc2F)on1
2. Cc1cc(CCCCCOc2c(F)cc(C3=NCCO3)cc2F)on1
3. Cc1cc(CCCCCOc2ccc(C3=NCCO3)cc2Cl)no1
4. Cc1cc(CCCCCOc2c(Cl)cc(C3=NCCO3)cc2Br)on1
5. Cc1cc(CCCCCOc2c(C)cc(C3=NCCO3)cc2Cl)on1
6. COc1cc(C(=O)NCCCl)cc(OC)c1OCCCCCc1cc(C)no1

stdout:
["0.3 µg/mL", "0.12 µg/mL", "0.4 µg/mL", "0.97 µg/mL", "0.8 µg/mL", "2 µg/mL"]

stdin: Value lookup for MIC; key = Cc1cc(CCCCCOc2c(C)cc(-c3cnco3)cc2C)on1
stdout: 5.4 µg/mL

###

- Test system: Polio 2
- protocol.description: microbe, parasite or virus in culture
- Type: cell-based, poliovirus
- protocol.conditions: Enterovirus C, HeLa, read-out: Polio 2 MIC
outcome.measure: log10 MIC (log10 of the value in µg/mL)
Heads up, the numbers here are log10 of MIC in µg/mL units.

Worked cases, log10 MIC given:
# compound, outcome.measure, assay.value
data = [
    ("Cc1cc(CCCCCOc2c(C)cc(C(=O)NCCCl)cc2Cl)on1", "log10 MIC", 0.05),
    ("Cc1cc(CCCCCOc2c(Cl)cc(C3=NC(C)CO3)cc2Cl)on1 (stereo not drawn)", "log10 MIC", 0.66),
]

Provide each entry's log10 MIC from the list below.
1. Cc1cc(CCCOCOCCOc2ccc(C3=NCCO3)cc2C)on1
2. Cc1cc(CCCCCOc2ccc(C3=NCC(CO)O3)cc2)on1 (stereo not drawn)
3. Cc1cc(CCCCCOc2ccc(C3=NCCO3)cc2C=CBr)on1

stdout:
[0.70, -0.16, -0.40]

Provide each entry's log10 MIC from the list below.
1. COc1cc(C2=NCCO2)ccc1OCCCCCc1cc(C)no1
2. CCOC(=O)c1cc(C2=NCCO2)ccc1OCCCCCc1cc(C)no1
3. CC(=O)OCc1cc(CCCCCCCOc2ccc(C3=NCCO3)cc2)on1
4. Cc1cc(CCCCCCCOc2ccc(C3=NCCO3)c(Cl)c2)on1

stdout:
1. -0.92
2. 0.62
3. -2.15
4. -0.15

###

- Test system: human rhinovirus (HRV) serotypes
- protocol.description: microbe, parasite or virus in culture
- Type: cell-based
- protocol.conditions: read-out: Rhinovirus MIC50
Assignment: determine reported MIC50 for the given compounds.

# compound, MIC50
rows = [
    ("Cc1cc(CCCCCOc2ccc(-c3ncco3)cc2Br)on1", "0.07 µg/mL"),
    ("Cc1cc(CCCCCOc2c(Cl)cc(C3=NCC(C)O3)cc2Cl)on1 (centres unmarked)", "0.13 µg/mL"),
    ("Cc1cc(CCCCCOc2c(Cl)cc(C3=NCCO3)cc2C(F)(F)F)on1", "0.11 µg/mL"),
]

Provide each entry's MIC50 from the list below.
1. Cc1cc(CCCCCOc2ccc(C3=NCCO3)c(O)c2)on1
2. Cc1cc(CCCCCOc2ccc(C3=NCCO3)cc2F)on1

stdout:
1. 0.084 µg/mL
2. 0.38 µg/mL

###

Assignment: determine reported MIC for the given molecules.
- Tested on: Polio 2
- protocol.description: microbe, parasite or virus in culture
- Format: cell-based, poliovirus
- protocol.conditions: Enterovirus C, HeLa, read-out: Polio 2 MIC
Answers are plain numbers, in µg/mL.

Worked cases, MIC given:
# compound.structure, MIC (µg/mL)
rows = [
    ("Cc1noc(CCCCCCCOc2ccc(C3=NCCO3)cc2)c1CCl", 0.05),
    ("Cc1cc(CCCCCOc2ccc(C3=NCCO3)cc2C=O)on1", 0.1),
]

Provide each entry's MIC from the list below.
1. Cc1cc(CCCCCOc2c(Cl)cc(C3=NCCO3)cc2Cl)on1
2. Cc1cc(CCCCCOc2ccc(C3=NCCO3)c(O)c2C)on1
3. Cc1cc(CCCCCOc2ccc(C3=NCCO3)cc2Cl)on1

stdout:
1: 0.59; 2: 0.11; 3: 0.12

###

- Tested on: Polio 2
- protocol.description: microbe, parasite or virus in culture
- Assay type: cell-based, poliovirus
- protocol.conditions: Enterovirus C, HeLa, read-out: Polio 2 MIC
Assignment: determine reported MIC for the given compounds.
Give bare numbers, in µg/mL.

# compound, measurement.units, MIC
data = [
    ("Cc1cc(CCCCCOc2ccc(C3=NCCO3)cc2)no1", "µg/mL", 0.0012),
    ("COc1cc(C2=NCCO2)cc(OC)c1OCCCCCc1cc(C)no1", "µg/mL", 1),
    ("Cc1cc(CCCCCCCOc2ccc(C3=NCCCO3)cc2)on1", "µg/mL", 0.8),
    ("OCc1cc(CCCCCOc2c(Cl)cc(C3=NCCO3)cc2Cl)on1", "µg/mL", 3.1),
]

Provide each entry's MIC from the list below.
1. Cc1noc(CCCCCCCOc2ccc(C3=NCCO3)cc2Cl)c1CO
2. Cc1cc(CCCCOc2ccc(C3=NCCO3)cc2)on1
3. Cc1cc(CCCCCOc2c(Cl)cc(C(=O)NCCCl)cc2[N+](=O)[O-])on1
4. Cc1cc(CCCCCOc2ccc(C3=NCCO3)c(C)c2)on1
5. Cc1cc(CCCCCSc2ccc(C3=NCCO3)cc2)on1

stdout:
[0.3, 0.5, 0.86, 0.045, 0.37]

Provide each entry's MIC from the list below.
1. Cc1cc(CCCCCOc2c(Cl)cc(C3=NCC(C)O3)cc2Cl)on1 (centres unmarked)
2. Cc1cc(CCCCOc2ccc(C3=NCCO3)cc2Cl)on1
3. Cc1cc(CCCCCOc2ccc(C3=NCCO3)cc2N)on1

stdout:
[2.6, 1.7, 2]

Provide each entry's MIC from the list below.
1. Cc1cc(CCCCCOc2c(Cl)cc(C3=NCCO3)cc2[N+](=O)[O-])on1
2. COC(=O)CCC(=O)OCc1cc(CCCCCOc2c(Cl)cc(C3=NCCO3)cc2Cl)on1
3. Cc1cc(CCCCCOc2ccc(-c3cnco3)cc2)on1
4. Cc1cc(CCCCCOc2ccc(C3=NCCO3)cc2C(F)(F)F)on1
5. Cc1cc(CCCCCOc2ccc(C3=NCCO3)cc2C(=O)O)on1

stdout:
1. 0.4
2. 8.5
3. 0.095
4. 1.3
5. 2.6

Provide each entry's MIC from the list below.
1. Cc1cc(CCCCCCc2ccc(C3=NCCO3)cc2)on1
2. CC(=O)c1cc(C2=NCCO2)ccc1OCCCCCc1cc(C)no1
3. Cc1cc(CCCCCOc2ccc(-c3nc(C)co3)cc2)on1

stdout:
1. 0.37
2. 2.3
3. 0.09
